- Test system: MDA‐MB‐231 breast adenocarcinoma
- MEASUREMENT_DESCRIPTION: MTT assay, MDA‐MB‐231
- Format: cell-based
- EXPERIMENTAL_CONDITIONS: MDA‐MB‐231, 10 μM, 48 h
Exercise: for every item that follows, state its recorded Cell growth percent [%].
Numbers only, in %.

Solved cases (4 shown):
{"columns": ["COMPOUND", "UNIT_ABBREVIATION", "Cell growth percent [%]"],
 "data": [
  ["CCOC(=O)c1cnn(CC(C)OC(=O)Nc2cccc(F)c2)c1N (stereo not drawn) [Compound 1b]", "%", 73.53],
  ["CCOC(=O)c1cnn(CC(C)OC(=O)Nc2cccc(C(F)(F)F)c2)c1N (stereo not drawn) [Compound 1d]", "%", 119.94],
  ["CCOC(=O)c1cnn(CC(C)O)c1NC(=O)Nc1cccc(F)c1 (stereo not drawn) [STIRUR‐41, reference compound]", "%", 64.32],
  ["N.N.[Cl][Pt][Cl] [Cis ‐Pt, Cisplatinum, reference compound]", "%", 86.07]
]}

Report Cell growth percent [%] for every entry below.
1. CCOC(=O)c1cnn(CC(C)OC(=O)Nc2ccccc2F)c1N (stereo not drawn) [Compound 1a]
2. CCOC(=O)c1cnn(CC(C)OC(=O)Nc2ccc(F)cc2)c1N (stereo not drawn) [Compound 1c]

Solution:
[106.29, 103.39]

* * *

- Test system: SK‐Mel28 cutaneous melanoma
- MEASUREMENT_DESCRIPTION: MTT assay, SK‐Mel28
- Format: cell-based
- EXPERIMENTAL_CONDITIONS: SK‐Mel28, 10 μM, 48 h
MEASURE_NAME: Cell growth percent [%] (%)
Give bare numbers, in %.

Solved cases (3 shown):
{"columns": ["COMPOUND", "MEASURE_NAME", "TEST_VALUE"],
 "data": [
  ["CCOC(=O)c1cnn(CC(C)OC(=O)Nc2ccccc2F)c1N (stereo not shown)", "Cell growth percent [%]", 95.28],
  ["N.N.[Cl][Pt][Cl] [Cis ‐Pt, Cisplatinum, reference compound]", "Cell growth percent [%]", 44.40],
  ["CCOC(=O)c1cnn(CC(C)OC(=O)Nc2ccc(F)cc2)c1N (stereo not shown)", "Cell growth percent [%]", 88.22]
]}

Please turn your attention to the following entry.
In plain terms, CCOC(=O)c1cnn(CC(C)O)c1NC(=O)Nc1cccc(F)c1 (stereo not shown) [STIRUR‐41, reference compound] has a documented Cell growth percent [%] of 94.26
